Measured values drawn from ChEMBL document CHEMBL3612035 for this set.

Assay: Cytotoxicity against mouse EAC cells assessed as dead cells at 50 uM after 24 hrs by trypan blue dye exclusion method relative to control
Assay type: functional, Ehrlich
Output t for Activity not less than 50%; output f otherwise.

{"compound": "CCN1C/C(=C\\c2ccc(OC)cc2)C2=NN(c3nc(-c4ccc(Cl)cc4)cs3)C(c3ccc(OC)cc3)C2C1 (stereo not drawn)", "assigned.label": "t"}
{"compound": "COc1ccc(/C=C2\\CCCC3C2=NN(C2=NC(=O)/C(=C/c4ccc(Br)cc4)S2)C3c2ccc(OC)cc2)cc1 (stereo not drawn)", "assigned.label": "f"}
{"compound": "N#Cc1c(N)nc2c(c1-c1ccc(O)cc1)CCC/C2=C\\c1ccc(O)cc1", "assigned.label": "f"}
{"compound": "COc1cc(/C=C2\\CCCc3c2nc(N)c(C#N)c3-c2ccc(O)c(OC)c2)ccc1O", "assigned.label": "t"}
{"compound": "COc1ccc(/C=C2\\CCC3C2=NN(c2nc(-c4ccc(Cl)cc4)cs2)C3c2ccc(OC)cc2)cc1 (stereo not drawn)", "assigned.label": "f"}

Lookup: Would you say COc1ccc(/C=C2\CN(C)CC3C2=NN(c2nc(-c4ccc(Cl)cc4)cs2)C3c2ccc(OC)cc2)cc1 (stereo not drawn) shows Activity at minimum 50%?
Found: t

Lookup: Would you say COc1ccc(/C=C/C2=NN(c3nc(-c4ccccc4)cs3)C(c3ccc(OC)cc3)C2)cc1 (stereo not drawn) shows Activity at minimum 50%?
Found: t
